Target: UniProtKB P28221
Sequence (P28221 whole entry): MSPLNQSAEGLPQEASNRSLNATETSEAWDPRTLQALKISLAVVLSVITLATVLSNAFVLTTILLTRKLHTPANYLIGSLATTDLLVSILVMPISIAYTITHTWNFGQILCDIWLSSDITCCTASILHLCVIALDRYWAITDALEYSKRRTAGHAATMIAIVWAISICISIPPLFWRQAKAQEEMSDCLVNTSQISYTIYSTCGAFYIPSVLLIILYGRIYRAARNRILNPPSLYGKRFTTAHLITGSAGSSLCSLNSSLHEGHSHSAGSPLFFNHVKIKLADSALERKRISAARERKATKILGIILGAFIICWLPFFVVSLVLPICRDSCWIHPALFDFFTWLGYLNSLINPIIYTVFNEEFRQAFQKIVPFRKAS
Assay: The compound was tested for intrinsic activity against 5-HT1D receptor
Settings: Oryctolagus cuniculus
Quantity: Intrinsic activity
Numbers only.

CN(C)CCc1c[nH]c2ccc(CCN3C(=O)NC(Cc4ccc([N+](=O)[O-])cc4)C3=O)cc12 (stereo unspecified) = 0.6
NCCc1c[nH]c2ccc(CC3NC(=O)N(Cc4cccc(Oc5ccccc5)c4)C3=O)cc12 (stereo unspecified) = 0.79

Each of the following entries comes with a recorded value; kindly state Intrinsic activity for each.
1. CNCCc1c[nH]c2ccc(CCN3C(=O)NC(Cc4cccc(NC(C)=O)c4)C3=O)cc12 (stereo unspecified)
2. CNCCc1c[nH]c2ccc(CCN3C(=O)CNC3=O)cc12
3. CC(=O)Nc1ccc(CN2C(=O)NC(Cc3ccc4[nH]cc(CCN)c4c3)C2=O)cc1 (stereo unspecified)
4. CS(=O)(=O)Nc1ccc(CC2NC(=O)N(CCc3ccc4[nH]cc(CCN)c4c3)C2=O)cc1 (stereo unspecified)
5. CCC(CO)NC(=O)[C@H]1C=C2c3cccc4c3c(cn4C)CC2N(C)C1 (stereo partly specified)
6. NCCc1c[nH]c2ccc(CC3NC(=O)N(CCc4ccccc4)C3=O)cc12 (stereo unspecified)
7. CNS(=O)(=O)Cc1ccc2[nH]cc(CCN(C)C)c2c1
8. CN(C)CCc1c[nH]c2ccc(O)cc12

[0.6, 0.7, 0.81, 0.8, 0.64, 0.67, 0.83, 0.92]

Look up Intrinsic activity: `NCCc1c[nH]c2ccc(C(N)=O)cc12`
0.84
